Hey, just so you know, these numbers are from PubChem BioAssay (NCI).

tested on: SW-620 colon; assay: NCI tumour cell line growth inhibition, 48 h
recorded metric: GI50

molecule	GI50
Cn1cc(C2=C(c3cn(CCCCO)c4ccccc34)C(=O)NC2=O)c2ccccc21	9.26 µM

Could you tell me GI50 for each of these molecules? They are listed below.
1. COc1cccc2c1C(=O)c1c(O)c3c(c(O)c1C2=O)C[C@](O)(C(=O)CO)C[C@H]3O[C@@H]1C[C@@H](NC(=O)CCCCCN(C)C2(c3ccc(F)cc3)CC3CCC2C3)[C@H](O)[C@@H](C)O1 (stereo partly drawn)
2. C=C(C)[C@@H]1CC[C@]2(C)[C@H](CC=C3[C@@H]4CC(C)(C)CC[C@]4(C(N)=O)CC[C@]32C)[C@@]1(C)CCC#N

Result:
0.76 µM
3.21 µM
